All figures here come from patent US20240010721A1.

Molecular target: T1, human ROR1 (hROR1) on cells (human, UniProt Q01973 30-937)
T1 construct: whole, on cells; the cell line is named under assay; also called HEK293T-hROR1; 293T-hROR1
T1 sequence (Q01973 30-937): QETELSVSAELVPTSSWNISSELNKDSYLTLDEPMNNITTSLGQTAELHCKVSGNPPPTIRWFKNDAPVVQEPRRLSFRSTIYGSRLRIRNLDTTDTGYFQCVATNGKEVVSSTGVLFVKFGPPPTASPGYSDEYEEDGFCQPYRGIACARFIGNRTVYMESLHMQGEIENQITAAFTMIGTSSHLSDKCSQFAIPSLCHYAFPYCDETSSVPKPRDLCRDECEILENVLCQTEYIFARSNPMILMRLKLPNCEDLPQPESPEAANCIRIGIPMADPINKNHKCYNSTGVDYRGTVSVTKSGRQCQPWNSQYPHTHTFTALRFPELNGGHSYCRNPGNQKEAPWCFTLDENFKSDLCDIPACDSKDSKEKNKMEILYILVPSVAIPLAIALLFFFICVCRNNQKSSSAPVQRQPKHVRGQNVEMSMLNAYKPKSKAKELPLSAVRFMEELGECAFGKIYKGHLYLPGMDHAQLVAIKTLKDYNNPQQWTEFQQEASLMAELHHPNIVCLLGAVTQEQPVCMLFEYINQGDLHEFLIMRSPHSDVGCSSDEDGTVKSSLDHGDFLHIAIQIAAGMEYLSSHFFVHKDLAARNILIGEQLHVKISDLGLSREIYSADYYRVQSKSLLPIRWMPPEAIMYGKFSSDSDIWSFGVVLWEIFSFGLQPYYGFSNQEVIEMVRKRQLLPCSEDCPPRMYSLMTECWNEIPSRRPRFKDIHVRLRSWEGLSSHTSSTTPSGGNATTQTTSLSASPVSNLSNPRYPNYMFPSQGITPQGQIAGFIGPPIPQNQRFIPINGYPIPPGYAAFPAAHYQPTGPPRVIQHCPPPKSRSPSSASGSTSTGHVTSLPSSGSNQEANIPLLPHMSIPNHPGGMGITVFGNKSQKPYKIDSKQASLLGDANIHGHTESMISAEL
Experiment: FACS, A549 cells
Entries and their MAX(MFI) values follow.
Report only the number, with the unit MFI understood.

Please review the following examples before continuing.
PR001366 (antibody, V domains shown, fully human IgG1, kappa) VH: QVQLVESGGGVVQPGRSLRLSCTASGFTFSSYGMHWVRQAPGKGLEWVAVKWYDGISQNFADSVKGRFTISRDNSKNTLYLQMNSLRAEDTAVYYCARDLARSFDIWGRGTLVTVSS VL: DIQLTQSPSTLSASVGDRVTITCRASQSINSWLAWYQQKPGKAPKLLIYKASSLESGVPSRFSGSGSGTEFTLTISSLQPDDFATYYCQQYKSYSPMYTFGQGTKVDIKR = 4750
PR001358 (antibody, human IgG1, kappa, V domains shown, fully human IgG1, kappa) VH: QVQLVQSGGGVVQPGRSLRLSCAASGFTFSSYAMHWVRQAPGKGLEWVAIMWYDGSNTDYADSVKGRFTISRDTSKNTLFLQMNSLRAEDTAVYYCAREQARSFDLWGRGTLVTVSS VL: DIVMTQSPSTLSASVGDRVTITCRASQSINSWLAWYQQKPGKAPKLLIYKASNLESGVPSRFSGSGSGTEFTLTISSLQPDDFATYYCQQYKSYSPMYTFGQGTKVDIKR = 4970

Enquiry: Which MAX(MFI) value belongs to PR001370 (antibody, V domains shown, fully human IgG1, kappa) VH: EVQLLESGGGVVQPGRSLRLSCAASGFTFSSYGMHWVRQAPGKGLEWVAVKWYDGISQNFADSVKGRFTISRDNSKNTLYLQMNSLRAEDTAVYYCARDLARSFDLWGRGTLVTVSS VL: DIVMTQSPSTLSASVGDRVTITCRASQSINNWLAWYQQKPGKAPKLLIYKASSLESGVPSRFSGSGSGTEFTLTISSLQPDDFATYYCQQYNSYSPMYTFGQGTKVDIKR ?
Return: 3920
